A collection of binders and their measured Inhibition of binding (%)
Target entity: T1, hCMV gH, gL, UL128, UL130 and UL131A co-expressed in HEK293T cells (human cytomegalovirus, UniProt P12824 24-743; P16832 31-278; P16837 1-171; P16772 1-214)
T1 construct: whole, on cells; also called gH + gL + UL128 + UL130 + UL131A; gH/gL/UL128-130 complex
Assay procedure: cell cross-competition, 20x excess; competitor 4I22-biotin
Please report the result as a number followed by the unit.

Example cases with answers are listed next.
- Binder: "9I6 (antibody, V domains shown, human IgG mAb; also called 9I6-biotin; 916) VH: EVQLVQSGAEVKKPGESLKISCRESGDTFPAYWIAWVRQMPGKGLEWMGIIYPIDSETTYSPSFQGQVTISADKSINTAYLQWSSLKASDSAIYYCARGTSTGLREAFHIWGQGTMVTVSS VL: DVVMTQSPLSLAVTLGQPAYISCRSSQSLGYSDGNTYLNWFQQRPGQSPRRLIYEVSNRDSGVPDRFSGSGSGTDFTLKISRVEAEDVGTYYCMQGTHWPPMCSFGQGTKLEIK"
  Inhibition of binding (%): "0%"
- Binder: "8C15 (antibody, V domains shown, human IgG mAb; also called 8C15-biotin) VH: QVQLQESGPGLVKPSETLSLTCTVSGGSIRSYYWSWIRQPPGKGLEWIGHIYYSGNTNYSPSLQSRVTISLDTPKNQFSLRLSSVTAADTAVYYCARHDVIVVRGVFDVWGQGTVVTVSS VL: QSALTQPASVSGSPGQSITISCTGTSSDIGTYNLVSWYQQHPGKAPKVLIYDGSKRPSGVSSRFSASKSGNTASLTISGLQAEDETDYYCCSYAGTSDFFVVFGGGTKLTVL"
  Inhibition of binding (%): "0%"

Read the next record carefully.
Given the entry 4I22 (antibody, V domains shown, human IgG mAb; also called 4I22-biotin) VH: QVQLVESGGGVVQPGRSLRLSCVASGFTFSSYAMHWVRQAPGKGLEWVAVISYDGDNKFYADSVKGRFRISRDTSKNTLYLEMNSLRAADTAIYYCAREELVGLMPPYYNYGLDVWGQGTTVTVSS VL: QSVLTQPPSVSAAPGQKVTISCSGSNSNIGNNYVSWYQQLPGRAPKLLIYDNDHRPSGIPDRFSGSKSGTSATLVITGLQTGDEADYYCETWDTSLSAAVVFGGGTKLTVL , report its measured Inhibition of binding (%). 100%

These entries and their values trace back to patent US20100092481A1.
